Assay: 39-week oral (gavage) toxicity/toxicokinetic study with 13-week treatment-free recovery period in cynomolgus monkeys
Type: in vivo, cynomolgus monkeys (Macaca fascicularis)
Settings: male, cynomolgus monkey, plasma, po, 50 mg/kg/day, Day 273 (Week 39); 50 mg/kg/d; males; mean (SD); read-out: t ½ (elimination half‐life) (converted)
property.label: half-life (h)
# output: bare number, implied unit h

Prompt: Look up half-life of CCOC(=O)N1c2ccc(C(F)(F)F)cc2C(N(Cc2cc(C(F)(F)F)cc(C(F)(F)F)c2)c2ncc(OCCCC(=O)O)cn2)CC1CC (stereo not shown) and report it.
Response: 6.4

* * *

Assay: 39-week oral (gavage) toxicity/toxicokinetic study with 13-week treatment-free recovery period in cynomolgus monkeys
Type: in vivo, cynomolgus monkeys (Macaca fascicularis)
Conditions: male, cynomolgus monkey, plasma, po, 20 mg/kg/day, Day 273 (Week 39); 20 mg/kg/d; males; mean (SD); read-out: t ½ (elimination half‐life) (converted)
property.label: half-life (h)
# output: bare number, implied unit h

Prompt: Look up half-life of CCOC(=O)N1c2ccc(C(F)(F)F)cc2C(N(Cc2cc(C(F)(F)F)cc(C(F)(F)F)c2)c2ncc(OCCCC(=O)O)cn2)CC1CC (stereo not shown) and report it.
Response: 8.1
